The origin of these recorded values is the supplement of paper PMC12636428.

Test system: Saccharomyces cerevisiae
Assay: transcriptional activation domain activity (GFP:mCherry ratio, weighted mean of sorted bins, harmonized to initial dataset scale) (arbitrary fluorescence ratio units); higher = stronger transcriptional activation
Details: beta-estradiol 1 µM; induction time 4 h
Assign transcriptional activation domain activity to each entry below.
Answers are plain numbers.

| SEQUENCE | QUANTITATIVE_READOUT |
| --- | --- |
| MVINGLPWLVALSIPFTFLASLTHSSWHPLLLRSHSTWRLYWWLVLVLRMHMT | 41500 |
| LLNIGNGGVPKNTNVHLGAQFFYLSFLEFILSCLTLCSRSWAWFHVVCVVHLR | 62300 |
| LYYMECSFFRLIIRWIPHWLFLSVKADHVILPLPNHPVGAIIGPNLFCIFLHI | 50900 |

According to the records, this sequence MVTVGILHYLLIGNLLTNVLFGVYVQMAWKCSCIFYRKYQMGQVHSYHLFSFI displays transcriptional activation domain activity of 80900

###

Assign transcriptional activation domain activity to each entry below.
Test system: Saccharomyces cerevisiae
Test: transcriptional activation domain activity (GFP:mCherry ratio, weighted mean of sorted bins, harmonized to initial dataset scale) (arbitrary fluorescence ratio units); higher = stronger transcriptional activation
Conditions: beta-estradiol 1 µM; induction time 4 h

| SEQUENCE | RESULT |
| --- | --- |
| MGKKRCLERILFLFLYAILFHILLLLLPSFPFLYLYTFAFVFYFSLSIYLVSL | 43600 |
| GDVAATDIGSKGGKKDGKRQKGSAAHVDGEDTSEDKKGAAKTGKRKKGGGAKE | 27200 |
| IRYLDHTQLLGEPLLKRTFMGGHIFIPTLIDTALCQSYFSSHILDILRHLTFS | 63300 |
| ILLANLECFPKEKIWDKTIVGGRCLDPIQVKLIWVYNAAVNLGLDVVILILPQ | 32200 |
| MTYLPFINFSLDIFVIVIVIVIYFPFFVTNFFNWFFSPFWCYLINYLFNLNLF | 52400 |
| MIFMLDANPSYGTLFILLPYLLSLIIPVLITSVLLSDIFFFFISYCMLCLSCC | 52200 |

Now turn to the next sequence.
According to the records, this sequence MSDATPTSARKAMAPRRSHRKSRLGCANCKRRRIKCDEQKPACSNCVKHDIRC displays transcriptional activation domain activity of 24400

###

Test system: Saccharomyces cerevisiae
Assay: transcriptional activation domain activity (GFP:mCherry ratio, weighted mean of sorted bins, harmonized to initial dataset scale) (arbitrary fluorescence ratio units); higher = stronger transcriptional activation
Conditions: beta-estradiol 1 µM; induction time 4 h
RECORDED_ENDPOINT: transcriptional activation domain activity
Give bare numbers.

// worked examples, transcriptional activation domain activity included
| SEQUENCE | QUANTITATIVE_READOUT |
| --- | --- |
| MGDIKKISCIFFSFIFGLVLFFFVIIITIICILWIWAWDFWACFGSGLGLLVC | 47100 |
| TSAFGQTNNAASPFGGTSNTAAGGFGSPATGGFGTNTAGGAFGSKPAFGATTT | 38300 |
| RKSTSGKTEKADTEKPEKKKPANEGNTAAGTKGTGERKPAVKAGGGVKGRPSG | 17800 |

Take each entry in turn and give its transcriptional activation domain activity.
1. EDEEETAAARSTSKRTRRGRVLDDSDEEDDEAGTVSPAKAATGAESEGEAGAA
2. MALFLGCIDFGQYKLNLEKYSGWLTIPLVPSEQALFYHTVKIIYSIFLHPLRN
3. RQCMLYLIAYFMLQETFGTYFNVTGILQNEYYRPSFGLLPLLMRARIIHYSPL
4. IWVHHVAYVRNCLAQLIFTWLDEYWRPLSDACILPRLRSWVLSRFRDAQLVQG

Result:
[30000, 66500, 34600, 78700]

Take each entry in turn and give its transcriptional activation domain activity.
1. VSDYSMAQFRFLLKFLLVHGRWNYVRICKYTVGTFWKELLFYLTQALFQRSNG
2. KEREQREQREQRRKEEREREKERERERELRERERERERERQQAREEAERAAMG
3. MEVCSVWISSLWFFVFSAFSVLGLWSLVFGIWSFRESGWYMGPGFFFFFFLIL
4. VEAPAEEQAEAPKTKRGRKAAEPAPVEPKEAEAPEPAAKPKRGRKAVSEEPME
5. IQEEVKAKKKRKSRKGAKEEGEASPAESSESDGEQEKPKKKASRKKKRPKVEG
6. LYKSYKHAFHDWIYRLYYYLYHCLVELGLSSAAVDIFRACLPSVKMGNIALTY

Result:
46600
15400
63100
42100
27600
63000

Take each entry in turn and give its transcriptional activation domain activity.
1. YVVLEVGLNVQLDRMAQSDARMVVHALSGGPFIDVVRWVPLRMSSGAFQIGLR
2. AKQGEDDAEKSKRGRKRKESETLEANGEEAGDDAEPAAKKAKPASKPASKAAA
3. MSLLMRVLCFCALGRPDLEDHWKSLQSEKAFEIVRTRVSSILDNIVTTAGVLL
4. AVGLPNPHAHTLLQSLYYLRSITFSLLRLKMEQRLSLLIPSYLTIWKLDRKAL
5. RQYRKRKAPAPAEGEENGEVAPAAPKPKRQRKKKPAPEEGAENTDGTAAAPKP
6. MFDYLVFTLCPCIFFILFLLILLVLLHKALVVFFFYHYSILVLVVPYYCLFVF

Result:
[68300, 30100, 60400, 68400, 47000, 86400]

Take each entry in turn and give its transcriptional activation domain activity.
1. LIAGWCCLLSASCGIFYCIFRAIAIYVPEFNCRVVLWCFAILKVISILCHAAV
2. SAPNDSTTAPTNASNIANTASVNKQMYFMNMNMNNNPHALNDPSILETLSPFF
3. ALNITYLFLGTYGWEYFGSCSVECALVCGRLAFRLSLIPYVLGRTSLLIYFIL

Result:
1. 32700
2. 71400
3. 41000

Take each entry in turn and give its transcriptional activation domain activity.
1. SGSSKPRRAEDGRKSSRRDHSREREGSNGGHHRSRSGRDGSASPKRSSSSRRR
2. MFWLSVSCYTYKIIRFYYADCGLVGVLKDQVQQCWIHLSYDLVYQYLPNLLNW
3. MTLVVMMILPPLASLDCFLLSFFFSLLLSPTFPLVLFFSVYKFFHFSTFPFFV

Result:
16800
69400
54800

Take each entry in turn and give its transcriptional activation domain activity.
1. VIGGGATGSGVAVDAASRGLKVALVERDDFSSGTSSKSTKLVHGGVRYLQKAV
2. RKADPPKEKKKPAVPAAEGAAAPAKKEKKDKKDKEAAAVSVEATEVKEEAAPA
3. KEEESNELKSEQEPPSAVESIAAVMTPSDNGSRFYIKRRILIGNVSKYIAPER
4. MILLPSLWLLSLVVIFPVCYFYIQKSFPFPSSLFCIVCPITIYIINILSSHVL

Result:
69700
13900
23100
33900

Take each entry in turn and give its transcriptional activation domain activity.
1. RKARQAQGAQGGGGGGAGGPGARGGARGGRVGGERGGRGGGRGGERGRGRGRG
2. VHVNDMVGFKFMSDKHEIFSKVLLTDVLKGTLAHQWLGYNVLFSNGSEWHFFR
3. GWVVILSSRCRIKTSVSRERLKMDVFWLIESIGLTVEYWRIVWDLRATYHFLR
4. LIIPIIMDHLYPVPYMAFWDVSCFVNKVYFMQIVWLFNLPFLLHLLITLICYP

Result:
1. 51400
2. 59100
3. 33000
4. 68100
